Biological target: 5-hydroxytryptamine receptor 1A (Homo sapiens)
Sequence (P08908 whole entry): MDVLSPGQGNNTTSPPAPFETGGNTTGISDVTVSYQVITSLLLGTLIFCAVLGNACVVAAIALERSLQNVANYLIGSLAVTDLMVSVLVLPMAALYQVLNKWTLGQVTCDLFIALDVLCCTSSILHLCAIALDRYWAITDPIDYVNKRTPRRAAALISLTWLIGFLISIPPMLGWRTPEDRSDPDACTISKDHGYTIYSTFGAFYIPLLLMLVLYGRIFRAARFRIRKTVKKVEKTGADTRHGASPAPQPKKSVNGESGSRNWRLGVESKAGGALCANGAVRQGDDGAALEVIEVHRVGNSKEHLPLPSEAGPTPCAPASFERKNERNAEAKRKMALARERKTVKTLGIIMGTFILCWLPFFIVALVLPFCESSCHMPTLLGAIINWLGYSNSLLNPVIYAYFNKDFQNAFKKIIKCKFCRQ
Experiment: GPCRScan assay: inhibition of 5-HT1A
Design: radioligand conc. used [nm] 0.5 – 1.0, parental cells stable CHO
Details: read-out: Ki
METRIC: pKi
By convention, pKi is the negative base-10 log of a molar concentration.

Prompt: Would you kindly share the measured pKi for "CC(=O)C1=C(C)N(c2cccc(C(F)(F)F)c2)C(=O)N[C@@H]1c1ccc(C#N)nc1" ?
Completion: 5.30

###

target: UniProt Q9Y5N1; experiment: GPCRScan assay: inhibition of H3; design: radioligand conc. used [nm] 0.5 – 1.0, parental cells HEK Flp-In; conditions: read-out: Ki
Sequence (Q9Y5N1 whole entry): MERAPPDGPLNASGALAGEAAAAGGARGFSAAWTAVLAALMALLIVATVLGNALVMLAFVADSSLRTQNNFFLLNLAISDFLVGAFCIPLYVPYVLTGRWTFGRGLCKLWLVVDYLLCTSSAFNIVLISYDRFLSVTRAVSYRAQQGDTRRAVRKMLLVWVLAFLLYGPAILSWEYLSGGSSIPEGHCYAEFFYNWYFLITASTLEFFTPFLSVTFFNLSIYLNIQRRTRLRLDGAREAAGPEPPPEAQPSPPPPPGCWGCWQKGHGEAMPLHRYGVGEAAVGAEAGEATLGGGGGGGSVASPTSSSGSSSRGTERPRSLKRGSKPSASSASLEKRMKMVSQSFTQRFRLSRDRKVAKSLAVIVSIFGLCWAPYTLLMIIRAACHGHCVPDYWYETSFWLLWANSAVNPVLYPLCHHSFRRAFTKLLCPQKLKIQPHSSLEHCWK
METRIC: pKi
By convention, pKi is the negative base-10 log of a molar concentration.

Prompt: Would you kindly share the measured pKi for "CC(=O)C1=C(C)N(c2cccc(C(F)(F)F)c2)C(=O)N[C@@H]1c1ccc(C#N)nc1" ?
Completion: 5.51

###

molecular target: Beta-1 adrenergic receptor (Homo sapiens); assay: GPCRScan assay: inhibition of Beta1; parameters: radioligand conc. used [nm] 0.1 – 0.2, parental cells CHO Flp-In; conditions: read-out: Ki
Sequence (P08588 whole entry): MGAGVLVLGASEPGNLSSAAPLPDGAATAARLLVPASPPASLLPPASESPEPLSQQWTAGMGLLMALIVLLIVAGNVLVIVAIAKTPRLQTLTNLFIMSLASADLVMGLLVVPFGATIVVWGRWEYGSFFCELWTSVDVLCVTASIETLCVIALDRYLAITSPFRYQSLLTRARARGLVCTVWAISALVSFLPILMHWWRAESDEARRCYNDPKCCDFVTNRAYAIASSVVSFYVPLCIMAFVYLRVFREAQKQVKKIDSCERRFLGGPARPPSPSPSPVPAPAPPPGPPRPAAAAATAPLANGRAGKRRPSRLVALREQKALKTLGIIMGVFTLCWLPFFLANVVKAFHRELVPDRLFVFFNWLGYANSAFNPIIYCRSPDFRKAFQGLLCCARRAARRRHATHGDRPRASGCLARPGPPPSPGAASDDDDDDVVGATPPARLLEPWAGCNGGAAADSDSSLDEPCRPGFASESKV
METRIC: Ki
Returns: string containing the numeric result and its unit.

Prompt: # returns recorded Ki (system: Beta-1 adrenergic receptor (Homo sapiens)) for "CC(=O)C1=C(C)N(c2cccc(C(F)(F)F)c2)C(=O)N[C@@H]1c1ccc(C#N)nc1"
Completion: 5.45 µM
